- assayed.target: LHRH (Rattus norvegicus, UniProt P30969)
- Construct: endogenous in cells; host or cells: rat pituitary cells (own knowledge of the cited Haviv 1989 method)
- Sequence (P30969 whole entry): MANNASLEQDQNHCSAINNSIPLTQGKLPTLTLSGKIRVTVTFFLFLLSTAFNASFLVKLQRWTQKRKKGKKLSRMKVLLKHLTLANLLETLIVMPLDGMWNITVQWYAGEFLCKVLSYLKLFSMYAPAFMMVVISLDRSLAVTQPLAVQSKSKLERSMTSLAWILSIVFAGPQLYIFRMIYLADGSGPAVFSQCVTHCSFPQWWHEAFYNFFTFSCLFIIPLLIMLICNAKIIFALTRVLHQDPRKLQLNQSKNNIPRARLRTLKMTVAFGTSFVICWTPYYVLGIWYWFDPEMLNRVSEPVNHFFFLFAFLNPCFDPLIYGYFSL
- procedure.details: in vitro test for LHRH antagonist potency (pA2)
- Type: cell-based
- condition.set: negative logarithm of the antagonist concentration required to shift the response curve produced by the agonist leuprolide to two-fold higher concentration
Non-standard residues stand in square brackets, D forms with d. Residues, ends and D or L forms follow the SMILES beside them. *: point of attachment. Shikimoyl = O=C(C1=C[C@@H](O)[C@@H](O)[C@H](O)C1)*; dPhe(4-Cl) = N[C@H](Cc1ccc(Cl)cc1)C(=O)O; d2Nal = N[C@H](Cc1ccc2ccccc2c1)C(=O)O; Lys(iPr) = CC(C)NCCCC[C@H](N)C(=O)O; NMeY = CN[C@@H](Cc1ccc(O)cc1)C(=O)O; d3Pal = N[C@H](Cc1cccnc1)C(=O)O; Nicotinoyl = O=C(c1cccnc1)*; βAla = NCCC(=O)O
I'd be grateful if you could share measured Kb for these entries.
Answers are plain numbers, in pM.

compound: CC(C)C[C@H](NC(=O)[C@@H](CCCCNC(=O)C1=C[C@@H](O)[C@@H](O)[C@H](O)C1)NC(=O)[C@H](Cc1ccc(O)cc1)N(C)C(=O)[C@H](CO)NC(=O)[C@@H](Cc1cccnc1)NC(=O)[C@@H](Cc1ccc(Cl)cc1)NC(=O)[C@@H](Cc1ccc2ccccc2c1)NC(=O)[C@@H](CO)NC(=O)C1=C[C@@H](O)[C@@H](O)[C@H](O)C1)C(=O)N[C@@H](CCCNC(=N)N)C(=O)N1CCC[C@H]1C(=O)N[C@H](C)C(N)=O [Example 14f] (Shikimoyl-[dS][d2Nal][dPhe(4-Cl)][d3Pal]S[NMeY][dK](Shikimoyl)LRP[dA]-NH2)
assayed.target: LHRH (Rattus norvegicus, UniProt P30969)
unit.of.measure: pM
Kb: 35.5

Switching to the query record.
Q: Write down the reported Kb of CC(C)C[C@H](NC(=O)[C@@H](CCCCNC(=O)c1cccnc1)NC(=O)[C@H](Cc1ccc(O)cc1)N(C)C(=O)[C@H](CO)NC(=O)[C@@H](Cc1cccnc1)NC(=O)[C@@H](Cc1ccc(Cl)cc1)NC(=O)[C@@H](Cc1ccc2ccccc2c1)NC(=O)CCNC(=O)c1cccnc1)C(=O)N[C@@H](CCCCNC(C)C)C(=O)N1CCC[C@H]1C(=O)N[C@H](C)C(N)=O [Example 6a] ({Nicotinoyl-βAla}-[d2Nal][dPhe(4-Cl)][d3Pal]S[NMeY][dK](Nicotinoyl)L[Lys(iPr)]P[dA]-NH2) , test system: LHRH (Rattus norvegicus, UniProt P30969).
Ans: 8.91
